Source: patent EP0308782A2

// values below are MIC; system is Candida albicans
Numbers only, in µg/mL.

Examples from the recorded data:
1) Cc1ccc(OCC(O)(Cn2cncn2)C(C)(C)n2cncn2)c(Cl)c1 (stereo not drawn) [Beispiel 13]	32
2) CC(C)(n1cccn1)C(O)(COc1ccc(Cl)cc1)Cn1cncn1 (stereo not drawn) [Beispiel 28]	32
3) CC(C)(n1cccn1)C(O)(CCc1ccc(Cl)cc1Cl)Cn1cncn1 (stereo not drawn) [Beispiel 23]	8
4) Cc1cc(C)n(C(C)(C)C(O)(CCc2ccc(Cl)cc2)Cn2cncn2)n1 (stereo not drawn) [Beispiel 21]	8
5) Cc1cc(Cl)ccc1OCC(O)(Cn1cncn1)C(C)(C)n1cncn1 (stereo not drawn) [Beispiel 12]	16
6) CC(C)(n1cccn1)C(O)(CCc1ccc(OC(F)(F)F)cc1)Cn1cncn1 (stereo not drawn) [Beispiel 20]	4
7) CC(C)(n1cncn1)C(O)(COc1ccc(Cl)cc1Cl)Cn1cncn1 (stereo not drawn) [Beispiel 11]	8
8) OC(Cn1cncn1)(Cn1cncn1)c1ccccc1 [(A), reference compound]	64

Need MIC for each of these compounds.
1. CC(C)(n1cncn1)C(O)(COc1ccc(Cl)cc1)Cn1cncn1 (stereo not drawn) [Beispiel 10]
2. CC(C)(n1cccn1)C(O)(CCc1ccccc1F)Cn1cncn1 (stereo not drawn) [Beispiel 19]

A:
[2, 16]

----------
// values below are MIC; system is Candida albicans
Give bare numbers, in µg/mL.

Examples from the recorded data:
1. CC(C)(n1cccn1)C(O)(CCc1ccc(F)cc1F)Cn1cncn1 (centres unmarked) [Beispiel 22]	2
2. CC(C)(n1cccn1)C(O)(CCc1ccc(F)cc1Cl)Cn1cncn1 (centres unmarked) [Beispiel 27]	8
3. CC(C)(Cn1cncn1)C(O)(CCc1ccc(-c2ccccc2)cc1)Cn1cncn1 (centres unmarked) [Beispiel 5]	8
4. CC(C)(Cn1cncn1)C(O)(CCc1ccc2ccccc2c1)Cn1cncn1 (centres unmarked) [Beispiel 2]	32

Need MIC for each of these compounds.
1. CC(C)(n1cccn1)C(O)(CCc1ccc(Cl)cc1F)Cn1cncn1 (centres unmarked) [Beispiel 26]
2. Cc1cc(C)n(C(C)(C)C(O)(CCc2ccc(F)cc2)Cn2cncn2)n1 (centres unmarked) [Beispiel 25]

A:
1: 8; 2: 16

----------
// values below are MIC; system is Candida albicans

Examples from the recorded data:
1) CC(C)(n1cncn1)C(O)(CSc1ccc(Cl)cc1)Cn1cncn1 (centres unmarked) [Beispiel 9]	< 1 µg/mL
2) CC(C)(n1cccn1)C(O)(/C=C/c1ccc(Cl)cc1)Cn1cncn1 (centres unmarked) [Beispiel 7]	< 1 µg/mL
3) CC(C)(n1cncn1)C(O)(Cn1cncn1)c1ccc(Cl)cc1 (centres unmarked) [(B), reference compound]	> 64 µg/mL
4) CC(C)(n1cncn1)C(O)(CCc1ccc(Cl)cc1)Cn1cncn1 (centres unmarked) [Beispiel 29]	< 1 µg/mL

Here is another compound to look at.
Q: // fetch Candida albicans MIC for CC(C)(n1cccn1)C(O)(CCc1ccc(F)cc1)Cn1cncn1 (centres unmarked) [Beispiel 24]
A: < 1 µg/mL
